System: Twospotted spider mites (Tetranychus urticae Koch)
Assay: Mite/insect screen: twospotted spider mites on sprayed squash cotyledons
Assay type: in vivo
Conditions: percent mortality, rate 400 PPM, leaf spray, read-out: SM RESULTS
Listed here are molecules together with their documented mortality at 400 ppm.
ASSAY_ENDPOINT: mortality at 400 ppm (%)

CCOc1ccc(CCCOc2ccnc3cccnc23)cc1
0
CC(C)(C)c1ccc(CCOc2ccnc3cccnc23)cc1
100
Fc1ccc(Oc2ccnc3ncccc23)cc1
0
CCOc1ccc(CCOc2ccnc3cccnc23)cc1
80
Fc1ccc(Oc2ccnc3ccncc23)cc1
0
Fc1ccc(Oc2ccnc3cccnc23)cc1
80
Fc1ccc(Oc2ccnc3cnccc23)cc1
0
CC(C)(C)c1ccc(CCNc2ccnc3cccnc23)cc1
100
Clc1ccccc1Oc1ccnc2ncccc12
0

* * *

Tested on: melon aphids (Aphis gossypii Glover)
Experiment: Mite/insect screen: melon aphids on sprayed squash cotyledons
Format: in vivo
Details: percent mortality, rate 200 PPM, leaf spray, read-out: MA RESULTS
Reported mortality at 200 ppm values for the following compounds.
ASSAY_ENDPOINT: mortality at 200 ppm (%)

Clc1ccccc1Oc1ccnc2ncccc12 [Example 8, 4-(2-chlorophenoxy)-1,8-naphthyridine]
0
CC(C)(C)c1ccc(CCNc2ccnc3cccnc23)cc1 [Example 7]
90
Fc1ccc(Oc2ccnc3ncccc23)cc1 [Example 1, 4-(4-fluorophenoxy)-1,8-naphthyridine]
0
CCOc1ccc(CCOc2ccnc3cccnc23)cc1 [Example 9]
100
Fc1ccc(Oc2ccnc3cnccc23)cc1 [Example 2, 4-(4-fluorophenoxy)-1,7-naphthyridine]
30
c1ccc(CCNc2ccnc3cccnc23)cc1 [Example 10]
0
Fc1ccc(Oc2ccnc3ccncc23)cc1 [Example 3, 4-(4-fluorophenoxy)-1,6-naphthyridine]
0
CC(C)(C)c1ccc(CCOc2ccnc3cccnc23)cc1 [Example 5]
50
CCOc1ccc(CCCOc2ccnc3cccnc23)cc1 [Example 6]
0

Each recorded value in this set is attributed to patent EP0410762A1.
